molecular target: HLA-A*02:06 molecule; assay: flow cytometry, RA2.6 cells
Think of -5 as a floor: if -log Kd value stands on it or above, it is 1 (yes); beneath it, 0 (no).

{"columns": ["binder", "cat"],
 "data": [
  ["ATAPPTAQL [peptide of SEQ ID NO: 25]", "0 (no)"],
  ["VMSHHGEKL [peptide of SEQ ID NO: 19]", "1 (yes)"],
  ["GILSDHQQS [peptide of SEQ ID NO: 74]", "1 (yes)"]
]}

INPUT: Please tell me: is the binder YTYDPPTTI [peptide of SEQ ID NO: 3] at or over -5 in terms of -log Kd value?
OUTPUT: 0 (no)

INPUT: What would you report for ATLAPAVLL [peptide of SEQ ID NO: 10] ?
OUTPUT: 0 (no)

INPUT: Record: ALRPAPALL [peptide of SEQ ID NO: 26]
OUTPUT: 1 (yes)

INPUT: Next up: LHEEHGATL [peptide of SEQ ID NO: 79]
OUTPUT: 1 (yes)

INPUT: Proceed to LMITRKSFI [peptide of SEQ ID NO: 17]
OUTPUT: 1 (yes)

INPUT: Similarly, GSPDEFSND [peptide of SEQ ID NO: 72] ?
OUTPUT: 1 (yes)
